- test: gradient 5% acetonitrile 3 min, to 50% in 2 min, to 85% in 15 min, held 3 min, 100 µL/min
- particulars: column: Zorbax Extend-C18 2.1 x 50 mm; eluents: water / acetonitrile, 0.1% formic acid
outcome measure: RP-LC retention time (s)

{"compound": "CCn1ccc(C(=O)N2c3ccccc3CC2c2nc(C(C)C)no2)n1 (stereo not given)", "RP-LC retention time, s": 970}
{"compound": "CS(=O)(=O)c1ccc(C(=O)Nc2ccc(Cl)c(-c3ccccn3)c2)c(Cl)c1", "RP-LC retention time, s": 891}
{"compound": "Cc1ccc(C(=O)Nc2ccc3c(c2)Sc2ncccc2C(=O)N3C(C)C)c(C)c1", "RP-LC retention time, s": 962}
{"compound": "Cc1cc(C)c(S(=O)(=O)Nc2cccc(-c3cn4cccc(C)c4n3)c2)cc1C", "RP-LC retention time, s": 743}
{"compound": "O=C(c1ccc2c(c1)OCCO2)N1CCCCC1", "RP-LC retention time, s": 839}

---

- test: gradient 5% acetonitrile 3 min, to 50% in 2 min, to 85% in 15 min, held 3 min, 100 µL/min
- particulars: column: Zorbax Extend-C18 2.1 x 50 mm; eluents: water / acetonitrile, 0.1% formic acid
outcome measure: RP-LC retention time (s)

{"smiles str": "COc1ccccc1NC(=O)N1CCC2(CC1)NC(=O)c1cccc(Cl)c1N2", "reading unit": "s", "RP-LC retention time": 754}
{"smiles str": "CCc1cc(=O)n(Cc2ccccc2C#N)c(N2CCCC2)n1", "reading unit": "s", "RP-LC retention time": 696}
{"smiles str": "Cc1cc(N(C)C)n2nc(-c3ccc(Cl)cc3)c(C)c2n1", "reading unit": "s", "RP-LC retention time": 744}
{"smiles str": "COc1ccccc1CCC(=O)Nc1cc(-c2cccnc2)no1", "reading unit": "s", "RP-LC retention time": 781}
{"smiles str": "O=C(NCCCN1CCOCC1)c1nc2ccccn2c1-c1ccc(Cl)cc1", "reading unit": "s", "RP-LC retention time": 629}

---

- test: gradient 5% acetonitrile 3 min, to 50% in 2 min, to 85% in 15 min, held 3 min, 100 µL/min
- particulars: column: Zorbax Extend-C18 2.1 x 50 mm; eluents: water / acetonitrile, 0.1% formic acid
outcome measure: RP-LC retention time (s)

[P] Cc1ccccc1-c1nocc1CCC(=O)O
[Q] Cc1ccc(S(=O)(=O)CC(=O)Nc2nc(-c3cccc([N+](=O)[O-])c3)cs2)cc1
Between P and Q , which one shows the smaller RP-LC retention time number? Pick one and reply with its label.
P
(P: 651 s, Q: 993 s)

[a] CCOc1ccc(S(=O)(=O)N(CC(=O)N2CCNCC2)C(C)C)cc1
[b] Cc1ccc(Cl)cc1-n1ncc2c(=O)n(Cc3nc(-c4cccc(C(F)(F)F)c4)no3)cnc21
Could you point out whether the larger RP-LC retention time belongs to a or to b ? Pick one and reply with its label.
b
(b: 1180 s, a: 625 s)

[a] Cc1ccccc1C(=O)N1CCC2(C1)C(=O)Nc1ccccc12 (centres undefined)
[b] Clc1ccc(-c2nnc(-c3cccnc3NCc3cccs3)o2)cc1
Could you point out whether the larger RP-LC retention time belongs to a or to b ? Pick one and reply with its label.
b

[A] Cc1ccc(C)c(NC(=O)N2CCC(N3CCN(Cc4cccc(F)c4)C(=O)C3=O)CC2)c1
[B] CSc1ccc(-c2noc(Cn3ncn4nc(-c5cc(C)ccc5C)cc4c3=O)n2)cc1
Could you point out whether the larger RP-LC retention time belongs to A or to B ? Pick one and reply with its label.
B
(B: 1260 s, A: 767 s)

[A] CCN1c2ccc(F)cc2C(=O)NC12CCN(C(=O)c1ccc(C)cc1)CC2
[B] Cc1cccc(-c2nc(Cn3nnc(-c4nc(-c5ccccc5)no4)c3C)c(C)o2)c1
Between A and B , which one shows the smaller RP-LC retention time number? Pick one and reply with its label.
A

[P] O=C(NCc1ccc2c(c1)OCO2)C1CCCN(c2ncc(-c3ccccc3)cn2)C1 (centres undefined)
[Q] Cc1ccc2nc(CCNC(=O)Cn3nc(C(=O)N4CCCC4)c4ccccc43)[nH]c2c1
Between P and Q , which one shows the smaller RP-LC retention time number? Pick one and reply with its label.
Q

[A] CC(C)NC(=O)Cn1cccc1-c1nc(-c2ccc3c(c2)OCO3)no1
[B] COc1cccc(-n2c(N3CCCC(C(=O)NCCN4CCCCC4)C3)nc3ccsc3c2=O)c1 (centres undefined)
Could you point out whether the larger RP-LC retention time belongs to A or to B ? Pick one and reply with its label.
A

[a] O=c1n(CCOc2ccc(F)cc2)nc2c(S(=O)(=O)N3CCCC3)cccn12
[b] CCN1CCN(C(=O)C2CCCN(c3nccc(C)n3)C2)CC1 (centres undefined)
Between a and b , which one shows the smaller RP-LC retention time number? Pick one and reply with its label.
b
(b: 559 s, a: 824 s)

All figures here come from the METLIN SMRT retention time set (Domingo-Almenara et al. 2019).
